# System: RARa homodimer (NR concentration 270 nM)
# experiment: PBM binding z-score (relative to random genomic background probes); higher = stronger binding; sequences stand for … in GC…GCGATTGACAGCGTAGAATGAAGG
measurementName: PBM binding z-score

recordsequence=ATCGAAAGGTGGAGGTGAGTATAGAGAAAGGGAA number=1.06
recordsequence=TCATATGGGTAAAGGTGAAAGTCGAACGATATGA number=0.221
recordsequence=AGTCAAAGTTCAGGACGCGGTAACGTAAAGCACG number=0.353
recordsequence=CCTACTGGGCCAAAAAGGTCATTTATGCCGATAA number=1.02
recordsequence=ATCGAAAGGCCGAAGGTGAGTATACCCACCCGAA number=-0.544
recordsequence=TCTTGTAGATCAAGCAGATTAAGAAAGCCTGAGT number=-0.326
recordsequence=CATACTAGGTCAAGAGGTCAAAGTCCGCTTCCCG number=3.07
recordsequence=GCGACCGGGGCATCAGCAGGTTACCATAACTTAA number=-0.42
recordsequence=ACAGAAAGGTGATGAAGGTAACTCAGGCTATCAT number=0.63
recordsequence=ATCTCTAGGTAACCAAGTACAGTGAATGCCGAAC number=1.1
recordsequence=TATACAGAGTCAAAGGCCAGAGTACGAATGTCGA number=-0.267
recordsequence=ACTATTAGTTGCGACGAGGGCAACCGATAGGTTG number=0.0553
recordsequence=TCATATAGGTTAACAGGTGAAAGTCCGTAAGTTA number=1.1
recordsequence=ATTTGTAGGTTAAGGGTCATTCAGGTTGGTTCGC number=4.5
recordsequence=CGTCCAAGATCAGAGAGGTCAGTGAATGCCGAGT number=1.49
recordsequence=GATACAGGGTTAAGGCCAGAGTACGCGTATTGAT number=0.426
recordsequence=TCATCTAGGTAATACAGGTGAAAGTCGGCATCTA number=1.29
recordsequence=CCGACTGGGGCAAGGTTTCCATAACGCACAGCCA number=-0.575
recordsequence=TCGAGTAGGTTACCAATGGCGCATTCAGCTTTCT number=-0.676
recordsequence=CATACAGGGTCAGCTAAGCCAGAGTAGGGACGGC number=0.0387
recordsequence=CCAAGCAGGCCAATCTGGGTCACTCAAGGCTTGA number=-1.17
recordsequence=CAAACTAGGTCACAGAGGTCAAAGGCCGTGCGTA number=2.81
recordsequence=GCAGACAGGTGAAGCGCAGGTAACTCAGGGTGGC number=-1.03
recordsequence=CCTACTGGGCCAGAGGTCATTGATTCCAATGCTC number=0.505
recordsequence=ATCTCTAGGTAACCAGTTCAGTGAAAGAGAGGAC number=1.15
recordsequence=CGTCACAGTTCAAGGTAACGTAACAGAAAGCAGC number=0.462
recordsequence=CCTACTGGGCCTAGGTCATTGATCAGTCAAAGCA number=-0.574
recordsequence=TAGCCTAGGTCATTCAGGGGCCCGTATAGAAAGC number=-0.527
recordsequence=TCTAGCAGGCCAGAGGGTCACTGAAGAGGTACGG number=-0.0509
recordsequence=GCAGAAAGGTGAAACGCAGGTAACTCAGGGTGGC number=-0.501
recordsequence=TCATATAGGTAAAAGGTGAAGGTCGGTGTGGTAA number=1.51
recordsequence=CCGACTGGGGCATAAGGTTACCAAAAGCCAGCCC number=0.0494
recordsequence=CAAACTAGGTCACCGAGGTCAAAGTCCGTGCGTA number=1.57
recordsequence=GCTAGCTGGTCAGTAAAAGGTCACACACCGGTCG number=2.36
recordsequence=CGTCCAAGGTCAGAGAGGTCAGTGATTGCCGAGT number=1.54
